TGI reference
system: SNB-75 CNS; assay: NCI tumour cell line growth inhibition, 48 h
Measurement label: TGI

>  <Molecule>
COP1(=O)Oc2ccccc2C(=O)C(C(F)(F)F)(C(F)(F)F)O1 (stereo not given)

>  <Reported result>
> 100 µM

$$$$
>  <Molecule>
COc1ccc(/C=C/C(=O)N[C@@H]2C(=O)N3[C@@H]2SC(C)(C)[C@@H]3C(=O)O)cc1

>  <Reported result>
> 100 µM

$$$$
>  <Molecule>
COc1ccc(-c2ccc(C3CC(c4ccc(Cl)cc4)=NN3)o2)c([N+](=O)[O-])c1 (stereo not given)

>  <Reported result>
> 100 µM

$$$$
>  <Molecule>
COc1ccc([N+](=O)[O-])c(S(=O)(=O)c2ccc(Cl)cc2)n1

>  <Reported result>
23.6 µM

$$$$
>  <Molecule>
NCc1nnn(Cc2ccccc2)c1N

>  <Reported result>
> 100 µM

$$$$
>  <Molecule>
CC(=O)N[C@H]1CCCC[C@@H]1OC(C)=O

>  <Reported result>
> 100 µM

$$$$
>  <Molecule>
O=C(/C=C\c1ccc(Cl)cc1Cl)c1cccs1

>  <Reported result>
42.2 µM

$$$$
>  <Molecule>
O=C(OC(=C(c1ccccc1)c1ccccc1)N1CCCC1=S)C(c1ccccc1)c1ccccc1

>  <Reported result>
> 10 µM

$$$$
>  <Molecule>
CN(C)c1ccc(/C=C(\NC(=O)c2ccccc2)C(=O)NC(CCC(=O)O)C(=O)O)cc1 (stereo not given)

>  <Reported result>
> 100 µM

$$$$
>  <Molecule>
CN(CCCCN(C)CCc1ccc(Cl)c(Cl)c1)CCCCN1CCCC1

>  <Reported result>
3.72 µM

$$$$

Reference source for all entries: PubChem BioAssay (NCI)
